System: CCRF-CEM leukemia
method: NCI tumour cell line growth inhibition, 48 h
Where a SMILES comes first, the peptide text is derived from it. [ ]: non-standard residue; d: D form. The star is where a group is joined. ξ: configuration not given here. ξNMe2Val = CC(C)C(C(=O)*)N(C)C; NMeV = CN[CH](C(=O)O)C(C)C; NHBn = c1ccc(CN*)cc1
Each entry below lists one item and its recorded TGI value.
observedProperty: TGI

molecule	observedProperty	measured
C=C(Cl)C(Cl)(CBr)CCC(Br)C(C)(C)Br (stereo not drawn)	TGI	23.5 µM
C[C@@H](Oc1cc(-n2cnc3ccc(OC4CCN(C)CC4)cc32)sc1C(N)=O)c1ccccc1Cl	TGI	4.19 µM
CCOC(=O)C(C(=O)OCC)=C1SC(=Nc2ccccc2)C(=Nc2ccccc2)N1c1ccccc1	TGI	> 100 µM
COc1cc(C(=O)NC2CCc3cc(OC)c(OC)c(OC)c3-c3ccc(OC)c(=O)cc32)cc(OC)c1OC (stereo not drawn)	TGI	> 35 µM
O=C(CN(/C=C/C(=O)C(F)(F)F)c1ccc(Cl)cc1)c1ccc(Cl)cc1	TGI	24.4 µM
C=C[C@@H](C)[C@]1(C(=O)OC)CCCC12OCCO2	TGI	> 100 µM
CC(C)(O)C(O)COc1c2c(cc3oc(=O)ccc13)OCO2 (stereo not drawn)	TGI	> 100 µM
CC(C)CC(NC(=O)C(C)(CI)Cc1ccccc1)C(=O)Nc1ccccc1 (stereo not drawn)	TGI	> 100 µM
C=CN(C(=O)N1CCN(c2cc3c(cc2F)c(=O)c(C(=O)O)cn3C2CC2)CC1)c1nc(-c2ccc(OC)cc2)cs1	TGI	> 100 µM
COc1cc2c(cc1OC)OC(c1c(OC)ccc(OC)c1O)CC2 (stereo not drawn)	TGI	77.8 µM
COc1cc(/C=C2\C(=O)N(C(=O)Cc3ccccc3)N=C2C)cc(OC)c1OC	TGI	> 100 µM
COc1ccc2c(c1)Cc1c(NCCN(C)C)ccc(C(=O)NCCCN(C)CCCNC(=O)c3ccc(NCCN(C)C)c4c3Nc3ccc(OC)cc3C4)c1N2	TGI	5.49 µM
Cc1cc(S(=O)(=O)NC2=NCc3nc4ccccc4n32)c(S)cc1Cl	TGI	86.6 µM
CC1=NN(c2nc(N)nc(CN3CCOCC3)n2)C(C)(C)C1	TGI	90.8 µM
COC1CCC(OS(C)(=O)=O)C(CO)O1 (stereo not drawn)	TGI	> 100 µM
COC1/C=C(C)/C=C/C(C)/C=C/C(=O)OC(/C(C)=C/C=C(\C)CNC(=O)[C@H](CO)NC=O)C(C)/C=C/C=C/C(OC)CC/C=C(C)/C=C/C1 (stereo partly drawn)	TGI	> 1 µM
CN(CCS(=O)(=O)N1C(=O)C2CCCN2C(=O)[C@@H]1Cc1ccccc1)C(=O)OCc1ccccc1 (stereo partly drawn)	TGI	> 100 µM
Cc1c(-c2cnccn2)ssc1=S	TGI	> 77.4 µM
CC1(C)OC2C(CCP(=O)(O)O)OC(c3nc(C(N)=O)cs3)C2O1 (stereo not drawn)	TGI	> 100 µM
CC(C)C(NC(=O)C(C(C)C)N(C)C)C(=O)N(C)C(C(=O)N1CCCC1C(=O)N1CCCC1C(=O)NCc1ccccc1)C(C)C (stereo not drawn) (ξNMe2Val-V[NMeV]PP-NHBn; configuration not given here)	TGI	0.00144 µM
O=C1/C(=C\c2ccc(Cl)cc2)N=C(c2ccccc2)N1n1c(=O)cn[nH]c1=S	TGI	15.7 µM
CC(=O)O[C@@H]1C2CCC3C(CC[C@@]4(C)C3CC[C@@H]4C(C)N(C)C)[C@@]2(C)CC[C@@H]1NC(=O)C=C(C)C (stereo partly drawn)	TGI	6.59 µM
CN[C@H]1CN(c2ccc3c(=O)c(C(=O)O)cn(-c4nccs4)c3n2)C[C@@H]1OC	TGI	> 22.9 µM
Cc1nn(CNc2ccccc2C(F)(F)F)c(=S)n1/N=C/c1cccc2cccnc12	TGI	> 100 µM
CC(=O)NC1C(OC(C)C(=O)NC(C)C(=O)NC(CCC(=O)NCCCCCNc2ccc([N+](=O)[O-])c3[nH]c4ccccc4c(=O)c23)C(N)=O)C(O)C(CO)OC1(C)OCc1ccccc1 (stereo not drawn)	TGI	> 100 µM
C=C(CCCCC)CN1CCCC1C(C)=O (stereo not drawn)	TGI	41.2 µM
NC(=O)NNC(=O)CCn1[nH]c(=O)c(Cl)c(Cl)c1=O	TGI	> 100 µM
COc1ccc(Nc2nc3cc(N)cc(N)c3nc2-c2ccccc2)cc1	TGI	> 100 µM
O=C1Nc2c(ccc(Cl)c2Cl)/C1=C/c1cc(Br)c(O)c(Br)c1	TGI	> 65.4 µM
COC(=O)[C@]12CC3C=CC1N(C3)C(CBr)c1c2n(S(=O)(=O)c2ccccc2)c2ccccc12 (stereo partly drawn)	TGI	> 100 µM
CC(C)(C)C(=O)OCOP(=O)(NCc1ccccc1)C1CCCN(O)C1=O (stereo not drawn)	TGI	> 100 µM
Cc1ccc2c(c1)C(=C(C#N)C#N)CCCS2(=O)=O	TGI	> 100 µM
CCOC(=O)c1cc(C2CCN(c3ccccc3)C2=O)c(/C(O)=C/C(C)=O)[nH]1 (stereo not drawn)	TGI	> 100 µM
COc1cc(/C=C2\CC3C4CC=C5C[C@@H](OC(C)=O)CC[C@]5(C)C4CC[C@]3(C)C2=O)ccc1OCCN1CCCCC1 (stereo partly drawn)	TGI	3.35 µM
CCOC(=O)c1nc2cc(C(F)(F)F)ccc2nc1Oc1ccc(C#N)cc1	TGI	> 100 µM
CCC[C@H]1O[C@@H]2CC(=O)O[C@@H]2C2=C1C(=O)C=CC2=O	TGI	> 47.9 µM
C/C(=N\N=C(N)N)C(CN1CCCCC1)C(c1ccccc1)c1c(O)c2ccccc2oc1=O (stereo not drawn)	TGI	> 100 µM
O=c1c2cc(-c3ccccc3)cnc2sn1-c1ccc(Br)cc1	TGI	> 100 µM

Provenance of the data: PubChem BioAssay (NCI)
